Give Excited state lifetime for every item shown.
assay: Excited state (emission) lifetime at different pH; type: physicochemical; settings: pH 6
Report the value in ms with no unit label.

Lab book: Excited state lifetime of CCN(CC)c1cc(C#Cc2cc(CN3CCN(Cc4cc(C#Cc5ccc(OC)c(N(CC)CC)c5)cc(P(C)(=O)[O-])n4)CCN(Cc4cc(C#Cc5ccc(OC)c(N(CC)CC)c5)cc(P(C)(=O)[O-])n4)CC3)nc(P(C)(=O)[O-])c2)ccc1OC.[Eu+3] noted as 0.59

Lab book: Excited state lifetime of CCN(CCCS(=O)(=O)O)c1cc(C#Cc2cc(CN3CCN(Cc4cc(C#Cc5ccc(OC)c(N(CC)CCCS(=O)(=O)O)c5)cc(P(C)(=O)O)n4)CCN(Cc4cc(CCCNC(=O)OC(C)(C)C)cc(P(C)(=O)O)n4)CC3)nc(P(C)(=O)O)c2)ccc1OC [Complex 88a] noted as 0.41

Lab book: Excited state lifetime of CCN(CC)c1cc(C#Cc2cc(CN3CCN(Cc4cccc(P(C)(=O)[O-])n4)CCN(Cc4cc(C#Cc5ccc(OC)c(N(CC)CC)c5)cc(P(C)(=O)[O-])n4)CC3)nc(P(C)(=O)[O-])c2)ccc1OC.[Eu+3] noted as 0.78

Lab book: Excited state lifetime of CCN(CC)c1cc(C#Cc2cc(CN3CCN(Cc4cc(C#Cc5ccc(OCCCC(=O)O)c(N(CC)CC)c5)cc(P(C)(=O)[O-])n4)CCN(Cc4cc(CCCNC(=O)OC(C)(C)C)cc(P(C)(=O)[O-])n4)CC3)nc(P(C)(=O)[O-])c2)ccc1OCCCC(=O)O.[Eu+3] [Complex 77a] noted as 0.53

====

assay: Excited state (emission) lifetime at different pH; type: physicochemical; details: pH 7
result-type: Excited state lifetime
Note: state the figure and append the unit.

Lab book: Excited state lifetime of CCN(CC)c1cc(C#Cc2cc(CN3CCN(Cc4cc(C#Cc5ccc(OCCCC(=O)O)c(N(CC)CC)c5)cc(P(C)(=O)[O-])n4)CCN(Cc4cc(CCCNC(=O)OC(C)(C)C)cc(P(C)(=O)[O-])n4)CC3)nc(P(C)(=O)[O-])c2)ccc1OCCCC(=O)O.[Eu+3] [Complex 77a] noted as 0.39 ms

Lab book: Excited state lifetime of CCN(CC)c1cc(C#Cc2cc(CN3CCN(Cc4cccc(P(C)(=O)[O-])n4)CCN(Cc4cccc(P(C)(=O)[O-])n4)CC3)nc(P(C)(=O)[O-])c2)ccc1OC.[Eu+3] noted as 0.74 ms

Lab book: Excited state lifetime of CCN(CC)c1cc(C#Cc2cc(CN3CCN(Cc4cc(C#Cc5ccc(OC)c(N(CC)CC)c5)cc(P(C)(=O)[O-])n4)CCN(Cc4cc(C#Cc5ccc(OC)c(N(CC)CC)c5)cc(P(C)(=O)[O-])n4)CC3)nc(P(C)(=O)[O-])c2)ccc1OC.[Eu+3] noted as 0.32 ms

Lab book: Excited state lifetime of CCN(CC)c1cc(C#Cc2cc(CN3CCN(Cc4cc(C#Cc5ccc(OCCCC(=O)NCCCS(=O)(=O)[O-])c(N(CC)CC)c5)cc(P(C)(=O)[O-])n4)CCN(Cc4cc(CCCNC(=O)OC(C)(C)C)cc(P(C)(=O)[O-])n4)CC3)nc(P(C)(=O)[O-])c2)ccc1OCCCC(=O)NCCCS(=O)(=O)[O-].[Eu+3] [Complex 78a] noted as 0.34 ms
